target: NLRP3 inflammasome (Homo sapiens, UniProt Q96P20); assay: Evaluation of NLRP3 inflammasome inhibitory activity (inhibition of IL-1β production in THP1-Null cells); conditions: 0.5 µmol/L PMA overnight, 1 µg/mL Lipopolysaccharides 3 hours, Nigericin 7.5 µmol/L 1.5 hours, AlphaLISA Human IL-1β
Sequence (Q96P20 whole entry): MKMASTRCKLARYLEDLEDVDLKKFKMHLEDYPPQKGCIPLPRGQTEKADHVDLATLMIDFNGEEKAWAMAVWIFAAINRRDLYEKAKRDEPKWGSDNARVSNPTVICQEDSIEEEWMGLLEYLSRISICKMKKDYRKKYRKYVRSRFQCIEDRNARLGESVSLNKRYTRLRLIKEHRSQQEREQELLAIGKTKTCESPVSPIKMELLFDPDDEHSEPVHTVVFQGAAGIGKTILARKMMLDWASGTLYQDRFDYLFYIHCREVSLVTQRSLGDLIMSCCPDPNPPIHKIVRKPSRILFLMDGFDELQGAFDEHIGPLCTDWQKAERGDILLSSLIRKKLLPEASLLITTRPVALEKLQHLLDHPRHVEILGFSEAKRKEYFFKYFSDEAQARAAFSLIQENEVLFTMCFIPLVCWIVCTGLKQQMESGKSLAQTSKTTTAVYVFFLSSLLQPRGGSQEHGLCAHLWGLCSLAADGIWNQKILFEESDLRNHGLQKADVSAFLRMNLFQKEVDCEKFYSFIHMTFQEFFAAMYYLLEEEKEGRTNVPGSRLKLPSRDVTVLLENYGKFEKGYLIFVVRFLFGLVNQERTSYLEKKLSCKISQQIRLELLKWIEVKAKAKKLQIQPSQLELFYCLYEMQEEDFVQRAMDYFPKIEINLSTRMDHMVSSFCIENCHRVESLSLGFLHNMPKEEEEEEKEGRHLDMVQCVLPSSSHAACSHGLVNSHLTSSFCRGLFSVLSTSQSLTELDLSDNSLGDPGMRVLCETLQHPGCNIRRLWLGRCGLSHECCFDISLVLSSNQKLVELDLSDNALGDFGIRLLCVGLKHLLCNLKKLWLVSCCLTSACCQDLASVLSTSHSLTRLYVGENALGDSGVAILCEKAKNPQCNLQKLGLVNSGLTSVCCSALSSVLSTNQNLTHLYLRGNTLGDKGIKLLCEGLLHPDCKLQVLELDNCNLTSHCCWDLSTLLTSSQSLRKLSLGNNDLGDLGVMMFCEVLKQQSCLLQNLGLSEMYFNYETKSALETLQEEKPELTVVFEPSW
Could you please report measured IC50 for the items listed next?
One number for each entry, in nM.

Consider the following illustrative entries.
In [3]: df
Out[3]:
                                   compound  observation_type  numeric_result
0  [2H]C([2H])([2H])Oc1nc2nn(-c3ccc(C(F)(F)F)cc3OC([2H])([2H])[2H])cc2c(=O)[nH]1 [Example 10]              IC50              61
1  COc1nc2nn(-c3c(C)cc(C(C)(C)F)cc3C)cc2c(=O)[nH]1 [Example 118]              IC50              73

For every item in the list below, what is its measured IC50?
1. COc1nc2nn(-c3ccc(Br)cc3C)cc2c(=O)[nH]1 [Example 69]
2. COCc1cc(C)c(-n2cc3c(=O)[nH]c(OC)nc3n2)c(C)c1 [Example 87]
3. Cc1cc(Br)cc(C)c1-n1cc2c(=O)[nH]c(O[C@@H]3CCOC3)nc2n1 [Example 36]

[57, 1200, 19]

Could you tell me IC50 for each of these compounds? They are listed below.
1. COc1nc2nn(-c3c(C)cc(OC(F)F)cc3F)cc2c(=O)[nH]1 [Example 66]
2. COc1nc2nn(-c3ccccc3C)cc2c(=O)[nH]1 [Example 1]

78
4200

Batch request: IC50 per item, same order as input.
1. COc1nc2nn(-c3c(C)cc(OC(F)F)cc3C)cc2c(=O)[nH]1 [Example 39]
2. COc1nc2nn(-c3ccc(C4CC4)cc3C(F)(F)F)cc2c(=O)[nH]1 [Example 45]
3. COc1cc(F)c(-n2cc3c(=O)[nH]c(OC)nc3n2)c(Cl)c1 [Example 76]
4. COc1nc2nn(-c3ccc(OC(F)F)cc3C(F)(F)F)cc2c(=O)[nH]1 [Example 63]
5. Cc1cc(C2CC2)cc(C)c1-n1cc2c(=O)[nH]c(OCCCO)nc2n1 [Example 116]
6. COc1nc2nn(-c3ccc(Br)cc3C3CC3)cc2c(=O)[nH]1 [Example 47]
7. COc1nc2nn(-c3c(C)cc(Br)cc3C#N)cc2c(=O)[nH]1 [Example 101]
8. CCOc1nc2nn(-c3ccc(OC)cc3Br)cc2c(=O)[nH]1 [Example 49]

1: 18; 2: 14; 3: 74; 4: 80; 5: 11; 6: 53; 7: 2400; 8: 73

// input: 2 compounds below; output: IC50 for each
1. Cc1cc(Br)cc(C)c1-n1cc2c(=O)[nH]c(OCC(C)(C)O)nc2n1 [Example 21]
2. COc1nc2nn(-c3c(C)cc(Br)cc3CF)cc2c(=O)[nH]1 [Example 115]

[74, 13]

---

Please provide measured pIC50 for the entries that follow.
Target: NLRP3 inflammasome (Homo sapiens, UniProt Q96P20)
Test: Evaluation of NLRP3 inflammasome inhibitory activity (inhibition of IL-1β production in THP1-Null cells)
Settings: 0.5 µmol/L PMA overnight, 1 µg/mL Lipopolysaccharides 3 hours, Nigericin 7.5 µmol/L 1.5 hours, AlphaLISA Human IL-1β
Protocol: The NLRP3 inflammasome inhibitory activity of test compounds were evaluated on the basis of the inhibitory activity of the IL-1β production in THP1-Null cells (Product Number: thp-null, InvivoGen). […] The amount of IL-1β in the culture supernatant was quantitated with AlphaLISA (registered trademark) Human IL-1β Detection Kit (Product Number: AL220C, Perkin Elmer). […]
One number for each entry, as −log10 of the molar value.

Would you please look over these solved cases?
In [3]: df
Out[3]:
                                   compound  numeric_result
0  COCCOc1nc2nn(-c3c(C)cc(Br)cc3C)cc2c(=O)[nH]1 [Example 107]            7.64
1  COCc1cc(C2CC2)cc(C)c1-n1cc2c(=O)[nH]c(OC)nc2n1 [Example 92]            7.68
2  CCOc1nc2nn(-c3c(C)cc(C4CC4)cc3C)cc2c(=O)[nH]1 [Example 50]            8.00
3  Cc1cc(Br)cc(C)c1-n1cc2c(=O)[nH]c(OCCCS(C)(=O)=O)nc2n1 [Example 35]            8.15
4  COc1nc2nn(-c3cc(C)ccc3C(F)(F)F)cc2c(=O)[nH]1 [Example 97]            5.92
5  COc1nc2nn(-c3c(C)cc(Cl)cc3C)cc2c(=O)[nH]1 [Example 57]            7.24

Dear reader, for each entry below, please note its pIC50.
1. COc1nc2nn(-c3ccc(Br)cc3C(O)C3CC3)cc2c(=O)[nH]1 (racemic) [Example 53]
2. COc1nc2nn(-c3ccc(Br)cc3C(F)F)cc2c(=O)[nH]1 [Example 59]
3. COc1nc2nn(-c3c(C)cc(C4CC4)cc3C)cc2c(=O)[nH]1 [Example 14]

6.80
7.26
8.10

Need pIC50 for each of these compounds.
1. COc1nc2nn(-c3c(C)cc(C4CC4)cc3F)cc2c(=O)[nH]1 [Example 28]
2. Cc1cc(Br)cc(C)c1-n1cc2c(=O)[nH]c(OCCCC#N)nc2n1 [Example 114]
3. CCOc1nc2nn(-c3c(C)cc(OC)cc3C)cc2c(=O)[nH]1 [Example 51]
4. COCC1(COc2nc3nn(-c4c(C)cc(Br)cc4C)cc3c(=O)[nH]2)CC1 [Example 18]
5. COc1nc2nn(-c3c(C(F)(F)F)nn(C(C)C)c3C)cc2c(=O)[nH]1 [Example 98]
6. Cc1cc(Br)cc(C)c1-n1cc2c(=O)[nH]c(OC[C@H]3CCOC3)nc2n1 [Example 111]
7. Cc1cc(Br)cc(C)c1-n1cc2c(=O)[nH]c(OCCC(C)(C)O)nc2n1 [Example 20]

[7.82, 7.72, 7.57, 7.47, 6.30, 7.30, 7.66]

# batch: return pIC50 for each of the 2 compounds below
1. COCc1cc(Br)cc(C)c1-n1cc2c(=O)[nH]c(OC)nc2n1 [Example 88]
2. Cc1cc(C2CC2)cc(C)c1-n1cc2c(=O)[nH]c(OCCC3CCOCC3)nc2n1 [Example 73]

1: 7.36; 2: 7.74

---

Assignment: determine reported IC50 for the given compounds.
biological target: NLRP3 inflammasome (Homo sapiens); experiment: Evaluation of NLRP3 inflammasome inhibitory activity (inhibition of IL-1β production in THP1-Null cells); details: 0.5 µmol/L PMA overnight, 1 µg/mL Lipopolysaccharides 3 hours, Nigericin 7.5 µmol/L 1.5 hours, AlphaLISA Human IL-1β
Value and unit, in that order.

Known results for compounds:
In [3]: df
Out[3]:
                                   compound   result
0  COc1ccc(-n2cc3c(=O)[nH]c(OC)nc3n2)c(C2CC2)c1 [Example 48]   190 nM
1  COc1nc2nn(-c3c(C)cc(C4CC4)cc3OC)cc2c(=O)[nH]1 [Example 29]    54 nM
2  COc1nc2nn(-c3c(Cl)cc(F)cc3OC)cc2c(=O)[nH]1 [Example 77]  2400 nM

State the recorded IC50 for every item in the following list.
1. Cc1c(-n2cc3c(=O)[nH]c(OCC4CC4)nc3n2)c(C(F)(F)F)nn1C(C)C [Example 102]
2. Cc1cc(C2CC2)cc(C)c1-n1cc2c(=O)[nH]c(OC3CCS(=O)(=O)CC3)nc2n1 [Example 46]
3. COc1nc2nn(-c3c(C)cc(C(C)(C)O)cc3C)cc2c(=O)[nH]1 [Example 31]
4. COc1ccc(-n2cc3c(=O)[nH]c(OC)nc3n2)c(C(F)(F)F)c1 [Example 24]

670 nM
33 nM
2400 nM
53 nM

Please state, for each entry, its recorded IC50.
1. COc1nc2nn(-c3c(C)cc(C(C)(F)F)cc3C)cc2c(=O)[nH]1 [Example 71]
2. Cc1cc(Br)cc(C)c1-n1cc2c(=O)[nH]c(OCC(F)F)nc2n1 [Example 67]

1. 42 nM
2. 43 nM

---

molecular target: NLRP3 inflammasome (Homo sapiens, UniProt Q96P20); test: Evaluation of NLRP3 inflammasome inhibitory activity (inhibition of IL-1β production in THP1-Null cells); conditions: 0.5 µmol/L PMA overnight, 1 µg/mL Lipopolysaccharides 3 hours, Nigericin 7.5 µmol/L 1.5 hours, AlphaLISA Human IL-1β
observation type: IC50 (µM)
Answers are plain numbers, in µM.

Before answering, review these 4 worked examples.
In [3]: df
Out[3]:
                            chemical_string  observation_type  numeric_result
0  COc1nc2nn(-c3ccc(Cl)c(C)c3C)cc2c(=O)[nH]1              IC50            0.76
1  COc1nc2nn(-c3cc(C)c(Cl)cc3C)cc2c(=O)[nH]1              IC50             1.2
2  COc1nc2nn(-c3c(Cl)cc(C(F)(F)F)cc3OC)cc2c(=O)[nH]1              IC50             1.3
3  CCc1cc(Br)cc(C)c1-n1cc2c(=O)[nH]c(OC)nc2n1              IC50           0.012

Notebook entry, NLRP3 inflammasome (Homo sapiens, UniProt Q96P20) assay: IC50 of "COc1nc2nn(-c3c(F)cc(F)cc3Cl)cc2c(=O)[nH]1" = ?
1.3
